# Target Of Assay: Human TfR1 protein (R&D Systems, 2474-TR or Acro Biosystems, CD1-H5243) (human, UniProt P02786 89-760)
# Sequence (P02786 89-760 limits assumed): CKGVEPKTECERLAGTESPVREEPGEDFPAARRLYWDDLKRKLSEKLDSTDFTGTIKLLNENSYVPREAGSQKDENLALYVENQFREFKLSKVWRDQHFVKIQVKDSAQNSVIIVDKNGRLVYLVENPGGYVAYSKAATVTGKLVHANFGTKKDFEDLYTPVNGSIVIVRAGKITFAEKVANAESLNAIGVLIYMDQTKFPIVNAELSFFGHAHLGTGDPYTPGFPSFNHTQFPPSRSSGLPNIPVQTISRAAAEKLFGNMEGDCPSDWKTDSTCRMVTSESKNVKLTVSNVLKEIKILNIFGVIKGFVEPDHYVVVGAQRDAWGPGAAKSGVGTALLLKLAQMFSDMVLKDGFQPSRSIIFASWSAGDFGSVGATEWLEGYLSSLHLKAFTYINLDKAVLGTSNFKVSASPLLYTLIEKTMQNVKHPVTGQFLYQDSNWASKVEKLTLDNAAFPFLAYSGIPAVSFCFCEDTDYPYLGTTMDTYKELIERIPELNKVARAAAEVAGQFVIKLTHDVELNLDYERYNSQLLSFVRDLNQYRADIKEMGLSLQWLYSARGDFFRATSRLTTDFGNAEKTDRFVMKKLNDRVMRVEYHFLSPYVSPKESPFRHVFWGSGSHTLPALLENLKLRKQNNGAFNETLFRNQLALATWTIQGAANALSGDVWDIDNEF
# Assay Explanation: FP competition, competitor BCY15768
Starred links: 1 amine or outer side, 2 acyl side, 3 side chain; linkers in the order of their positions; H or OH if unused. Positions of bridges follow the written chain, without caps; N, C: chain ends. Non-standard residues stand in square brackets, D forms with d. No end group written: not given here. TATB = O=C(C[*:1])N1CN(C(=O)C[*:2])CN(C(=O)C[*:3])C1; Tle = CC(C)(C)[C@H](N)C(=O)O
Experimental Endpoint: Ki

Below, each entry is followed by its recorded Ki result.
Ac-CSPDAHLGCISYCEPW-NH2 (linker 1-9-13 via TATB (inferred)) [BCY17994] :: 8 nM
NWNCPXDAYLGCXSYC (3 Cys on TATB; N-terminal acetyl (Ac); core as printed CP[HyP]DAYLGC[tBuGly]SYC) [BCY17993] :: 5 nM
ACSPDAHLGC[Tle]SYCA (linker 2-10-14 via TATB) [BCY16051] :: 66 nM
HTSCSPDAHLGCISYCA (linker 4-12-16 via TATB) [BCY17111] :: 86 nM
ESFCSPDAHLGCISYCA (linker 4-12-16 via TATB) [BCY17113] :: 103 nM

Ask: Could you tell me which Ki is on file for CPXDAYLGCXSYC (3 Cys on TATB; N-terminal acetyl (Ac); core as printed CP[HyP]DAYLGC[tBuGly]SYC) [BCY17991] ?
Result: 3 nM
